System: BxPC-3 cells
Experiment: XTT cell viability, BxPC-3 cells
Format: cell-based
Settings: Homo sapiens, BXPC-3, 48 h, co-exposure to 1 μM FXYD3-pep SKSK, 5 experiments, read-out: IC50 for Dox, cell viability
Protocol: Human pancreatic cancer cells BxPC-3, Panc-1, non-transformed human mammary epithelial MCF-10A cells, and human breast cancer cells MCF-7 and MDA-MB-468 were obtained from the American Type Culture Collection (ATCC, Manassas, VA, USA). The cells were then cultured as previously described ([6], [9], [11]). […] Results are presented as mean ± standard deviation (SD). The IC50 values for Dox in cell viability studies were calculated by GraphPad Prism. […]
endpoint label: IC50

INPUT: For the molecule COc1cccc2c1C(=O)c1c(O)c3c(c(O)c1C2=O)C[C@@](O)(C(=O)CO)C[C@@H]3O[C@H]1C[C@H](N)[C@H](O)[C@H](C)O1 , what IC50 is on record?
OUTPUT: ~400 nM
